# credit: patent US20220106289A1

Each item that follows carries a reported IC50.
Molecular target: NLRP3 (Homo sapiens, UniProt Q96P20)
Sequence (Q96P20 whole entry): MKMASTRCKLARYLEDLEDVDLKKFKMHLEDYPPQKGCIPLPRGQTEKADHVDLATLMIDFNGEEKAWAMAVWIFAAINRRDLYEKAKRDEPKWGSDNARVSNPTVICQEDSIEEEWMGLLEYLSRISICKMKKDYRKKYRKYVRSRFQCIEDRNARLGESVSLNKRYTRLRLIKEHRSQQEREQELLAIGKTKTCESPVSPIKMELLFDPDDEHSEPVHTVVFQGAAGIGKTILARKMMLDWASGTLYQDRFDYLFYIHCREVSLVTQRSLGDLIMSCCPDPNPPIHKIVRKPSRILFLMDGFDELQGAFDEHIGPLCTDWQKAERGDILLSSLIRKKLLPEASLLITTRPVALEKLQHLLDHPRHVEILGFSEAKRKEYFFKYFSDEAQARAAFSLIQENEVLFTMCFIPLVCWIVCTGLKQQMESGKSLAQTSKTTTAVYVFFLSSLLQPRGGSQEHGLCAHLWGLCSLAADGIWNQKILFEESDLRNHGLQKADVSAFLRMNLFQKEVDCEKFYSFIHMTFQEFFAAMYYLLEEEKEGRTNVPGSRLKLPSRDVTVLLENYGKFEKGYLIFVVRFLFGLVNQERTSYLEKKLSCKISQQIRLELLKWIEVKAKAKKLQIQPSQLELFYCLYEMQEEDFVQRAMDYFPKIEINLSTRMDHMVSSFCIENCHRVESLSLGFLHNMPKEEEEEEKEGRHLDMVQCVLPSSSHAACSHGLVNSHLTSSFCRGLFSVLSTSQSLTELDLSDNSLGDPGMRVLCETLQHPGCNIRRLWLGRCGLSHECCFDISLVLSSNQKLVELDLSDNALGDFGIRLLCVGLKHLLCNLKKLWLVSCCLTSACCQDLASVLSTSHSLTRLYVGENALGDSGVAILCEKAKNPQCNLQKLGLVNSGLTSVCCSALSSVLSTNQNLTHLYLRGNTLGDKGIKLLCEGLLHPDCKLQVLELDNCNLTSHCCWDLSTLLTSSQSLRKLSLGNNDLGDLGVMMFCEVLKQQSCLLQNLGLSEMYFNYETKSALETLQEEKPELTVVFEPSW
Assay: THP-1 cells pyroptosis assay (LPS + nigericin, resazurin read-out)
Format: cell-based
Parameters: Seed THP-1 cells (25,000 cells/well) containing 1.0 μg/ml LPS; host or cells: THP-1 cells
Settings: NLRP3 inhibitory activity, 1 μg/ml LPS, 5 μM nigericin
Counter-ions that a name gives are not always drawn.

Consider CC(C)n1nncc1S(=O)(=O)NC(=O)Nc1c2c(cc3c1CCC3)CCC2 [Example 47] . Its measured IC50 is < 250 nM

Consider COc1cc(-c2cc(F)cc(C(C)C)c2CC(=O)Nc2ncco2)ccn1 [Example 95] . Its measured IC50 is 5000 to 10000 nM

Consider O=C(Nc1c2c(cc3c1CCC3)C=CC2)NS(=O)(=O)c1cc[nH]n1 [Example 14, potassium salt] . Its measured IC50 is 500 to 1000 nM

Consider [2H]C([2H])([2H])N(CCn1ccc(S(=O)(=O)NC(=O)Nc2c3c(cc4c2CCC4)CCC3)n1)C([2H])([2H])[2H] [Example 12, potassium salt] . Its measured IC50 is < 250 nM

Consider CC(C)c1cccc(C(C)C)c1NC(=O)NS(=O)(=O)c1cnn(CC(F)(F)F)c1 [Example 76] . Its measured IC50 is 5000 to 10000 nM

###

Assay: PK in rats, oral administration
Type: in vivo
Details: male, Sprague-Dawley, 3 mg/kg, rat plasma
Counter-ions that a name gives are not always drawn.
measured property: half-life (h)
The reply should contain only the number, in h.

| molecule | half-life / h |
| --- | --- |
| COC(C)(C)c1cc(S(=O)(=O)NC(=O)Nc2c3c(cc4c2CCC4)CCC3)nn1C [Example 39] | 2.2 |

Lab note: next molecule to report on.
Consider CCn1ccc(S(=O)(=O)NC(=O)Nc2c3c(cc4c2CCC4)CCC3)n1 [Example 45, sodium salt] . Its measured half-life is 2.5

###

Test: PK in rats, oral administration
Assay type: in vivo
Settings: male, Sprague-Dawley, plasma, 1.3 mg/kg, rat
measured property: bioavailability

Consider COC(C)(C)c1cc(S(=O)(=O)NC(=O)Nc2c(C(C)C)cc(Cl)cc2C(C)C)nn1C . Its measured bioavailability is > 100%

###

Each item that follows carries a reported pIC50.
Biological target: NLRP3 (Homo sapiens, UniProt Q96P20)
Assay: Human whole blood IL-1β release assay (LPS + nigericin, AlphaLisa)
Assay type: cell-based
Parameters: Human whole blood in Li-heparin tubes was obtained from healthy donors; from tissue; host or cells: human whole blood from healthy donors
Details: NLRP3 inhibitory activity, 1 μg/ml LPS, 10 μM nigericin, read-out: HWB IC50
pIC50: −log10 of the molar value. Structures can show the parent of a compound that is named as a salt.

Known results for compounds:
| compound | pIC50 |
| --- | --- |
| O=C(Nc1c2c(cc3c1CCC3)CCC2)NS(=O)(=O)c1cc[nH]n1 [Example 13, potassium salt] | < 5.00 |
| COC(C)c1cc(S(=O)(=O)NC(=O)Nc2c3c(cc4c2CCC4)CCC3)nn1C (centres unmarked) [Example 53] | 6.00 to 6.30 |
| CC(C)c1cc(C#N)cc(C(C)C)c1NC(=O)NS(=O)(=O)c1ccn(C(C)C)n1 [Example 72] | 5.00 to 5.30 |
| CC(C)c1cc(Cl)c2c(c1NC(=O)NS(=O)(=O)c1ccn(C(C)C)n1)CCC2 [Example 34] | 5.00 to 5.30 |
| COc1cc(-c2cc(F)cc(C(C)C)c2CCC(=O)NS(=O)(=O)c2ccc(C(C)(C)O)cc2C)ccn1 [Example 3] | < 5.00 |
| O=C(Nc1c2c(cc3c1CCC3)CCC2)NS(=O)(=O)c1cnn(CC(F)(F)F)c1 [Example 41, sodium salt] | 5.00 to 5.30 |

Consider CC(C)n1cnc(S(=O)(=O)NC(=O)Nc2c3c(cc4c2CCC4)CCC3)n1 [Example 46, sodium salt] . Its measured pIC50 is 6.00 to 6.30

Consider C#CCCC1(CCn2ccc(S(=O)(=O)NC(=O)Nc3c4c(cc5c3CCC5)CCC4)n2)N=N1 [Example 16, potassium salt] . Its measured pIC50 is 5.00 to 5.30
